test system: biotinyl-Ile-oxazolone; test: self-aminoacylation, catalytic enhancement (BIO) (fold over background); higher = more active; k-Seq, kA / k0A0; sequences stand for … in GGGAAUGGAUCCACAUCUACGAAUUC…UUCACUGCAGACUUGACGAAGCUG
This sample holds only a part of the variants without activity.
Form field: self-aminoacylation (one value per entry).
Attribute Measured: self-aminoacylation

[[record]]
sequence_string = "CCACACAUCAAGCACUCGGUC [Fam1B.1 aminoacylation ribozyme variant]"
attribute_measured = "self-aminoacylation"
reported = 0.935

[[record]]
sequence_string = "CUACUUCAAUCAAUCGGUCUG [Fam1A.1 aminoacylation ribozyme variant]"
attribute_measured = "self-aminoacylation"
reported = 1.01

[[record]]
sequence_string = "AUCACCCUGGGCAUCGAGUGA [Fam2.1 aminoacylation ribozyme variant]"
attribute_measured = "self-aminoacylation"
reported = 4.64

[[record]]
sequence_string = "AGUACCCUGUUCAUCGAGUGA [Fam2.1 aminoacylation ribozyme variant]"
attribute_measured = "self-aminoacylation"
reported = 2.36

[[record]]
sequence_string = "AUGCCCCUGGUCAUCGAGUGA [Fam2.1 aminoacylation ribozyme variant]"
attribute_measured = "self-aminoacylation"
reported = 5.14

[[record]]
sequence_string = "UUUACCCGGGUCAUCGAGUGA [Fam2.1 aminoacylation ribozyme variant]"
attribute_measured = "self-aminoacylation"
reported = 3.4

[[record]]
sequence_string = "AUUACCCUGCUCAUAGAGUGA [Fam2.1 aminoacylation ribozyme variant]"
attribute_measured = "self-aminoacylation"
reported = 3.87

[[record]]
sequence_string = "CCACACUUCAAGCACUCGCUC [Fam1B.1 aminoacylation ribozyme variant]"
attribute_measured = "self-aminoacylation"
reported = 2.02

[[record]]
sequence_string = "CUACUUCAAACAACGGGUCUG [Fam1A.1 aminoacylation ribozyme variant]"
attribute_measured = "self-aminoacylation"
reported = 0.937

[[record]]
sequence_string = "CCACACCUCAAGCAAGCGGUC [Fam1B.1 aminoacylation ribozyme variant]"
attribute_measured = "self-aminoacylation"
reported = 1.34

[[record]]
sequence_string = "AUGCACCUAGAUCAUCGGGUG [Fam2.2 aminoacylation ribozyme variant]"
attribute_measured = "self-aminoacylation"
reported = 2.13

[[record]]
sequence_string = "CUACUUCAAACUAUCGGUAUG [Fam1A.1 aminoacylation ribozyme variant]"
attribute_measured = "self-aminoacylation"
reported = 0.715

[[record]]
sequence_string = "AUGUUUGCUAAUAGUCGCGAG [Fam3.1 aminoacylation ribozyme variant]"
attribute_measured = "self-aminoacylation"
reported = 1.65

[[record]]
sequence_string = "AACUUUGCUAAUAGUCGCAAG [Fam3.1 aminoacylation ribozyme variant]"
attribute_measured = "self-aminoacylation"
reported = 2.22

[[record]]
sequence_string = "AUUCACCUUGGUCAUCAGGUG [Fam2.2 aminoacylation ribozyme variant]"
attribute_measured = "self-aminoacylation"
reported = 1.7

[[record]]
sequence_string = "AUUACGAUGGUCAUCGAGUGA [Fam2.1 aminoacylation ribozyme variant]"
attribute_measured = "self-aminoacylation"
reported = 2.99

[[record]]
sequence_string = "AUUACCCUGAUCAUCGAGUGU [Fam2.1 aminoacylation ribozyme variant]"
attribute_measured = "self-aminoacylation"
reported = 1.81

[[record]]
sequence_string = "AAGUUUGCUAAUAGACGCAAG [Fam3.1 aminoacylation ribozyme variant]"
attribute_measured = "self-aminoacylation"
reported = 0.526

[[record]]
sequence_string = "CCUCACUUCAAGCAAUCGGUU [Fam1B.1 aminoacylation ribozyme variant]"
attribute_measured = "self-aminoacylation"
reported = 1.34

[[record]]
sequence_string = "CCACACUUCAAGCUACCGGUC [Fam1B.1 aminoacylation ribozyme variant]"
attribute_measured = "self-aminoacylation"
reported = 1.23

[[record]]
sequence_string = "ACACACUUCAGGCAAUCGGUC [Fam1B.1 aminoacylation ribozyme variant]"
attribute_measured = "self-aminoacylation"
reported = 1.56

[[record]]
sequence_string = "AAGUUGGCUAAUGGUCGCAAG [Fam3.1 aminoacylation ribozyme variant]"
attribute_measured = "self-aminoacylation"
reported = 1.29

[[record]]
sequence_string = "GUUACCCUAGUCAUCGAGUGA [Fam2.1 aminoacylation ribozyme variant]"
attribute_measured = "self-aminoacylation"
reported = 3.81

[[record]]
sequence_string = "CCAAACUUCAAGCCAUCGGUC [Fam1B.1 aminoacylation ribozyme variant]"
attribute_measured = "self-aminoacylation"
reported = 1.15

[[record]]
sequence_string = "AUUACCGCGGUCAUCGAGUGA [Fam2.1 aminoacylation ribozyme variant]"
attribute_measured = "self-aminoacylation"
reported = 3.36

[[record]]
sequence_string = "AAAUUUGCUAAUAGUCGCACG [Fam3.1 aminoacylation ribozyme variant]"
attribute_measured = "self-aminoacylation"
reported = 1.58

[[record]]
sequence_string = "CCACAAUGCAAGCAAUCGGUC [Fam1B.1 aminoacylation ribozyme variant]"
attribute_measured = "self-aminoacylation"
reported = 1.48

[[record]]
sequence_string = "UUACUACAAACAAUCGGUCUG [Fam1A.1 aminoacylation ribozyme variant]"
attribute_measured = "self-aminoacylation"
reported = 1.04

[[record]]
sequence_string = "AUUUCCCUAGGUCAUCGGGUG [Fam2.2 aminoacylation ribozyme variant]"
attribute_measured = "self-aminoacylation"
reported = 6.29

[[record]]
sequence_string = "AUUACCCUGUUAAUCGAGUGA [Fam2.1 aminoacylation ribozyme variant]"
attribute_measured = "self-aminoacylation"
reported = 4.91

[[record]]
sequence_string = "CCACACUUCAAGCAAUCGCAC [Fam1B.1 aminoacylation ribozyme variant]"
attribute_measured = "self-aminoacylation"
reported = 0.76

[[record]]
sequence_string = "AUGUUUGCUAAUAGUCGCAAC [Fam3.1 aminoacylation ribozyme variant]"
attribute_measured = "self-aminoacylation"
reported = 1.15

[[record]]
sequence_string = "AAGUUGGAUAAUAGUCGCAAG [Fam3.1 aminoacylation ribozyme variant]"
attribute_measured = "self-aminoacylation"
reported = 1.17

[[record]]
sequence_string = "CCACACUUCAUGCAAUCGGUU [Fam1B.1 aminoacylation ribozyme variant]"
attribute_measured = "self-aminoacylation"
reported = 1.2

[[record]]
sequence_string = "AAUACCCUGGUCAUCGAGGGA [Fam2.1 aminoacylation ribozyme variant]"
attribute_measured = "self-aminoacylation"
reported = 1.51

